Hello, the source for this data is paper PMC7707092, in case you need it.

- measured.on: hNCX1 (Homo sapiens, UniProt P32418)
- test: Confirmatory fluorescence assay for hNCX1 inhibition (forward mode, HEK293 cells, Charles River)
- Type: cell-based
- condition.parameters: HEK293, text; read-out: IC50 hNCX1 (forward mode)
recorded.endpoint: IC50

Name the recorded IC50 of the molecule listed here: CCOC(=O)C1CSC(Cc2ccc(OCc3ccc([N+](=O)[O-])cc3)cc2)N1 (stereo not shown) [SN‐6]
> 100 µM
